Assay overview: HepG2 hepatoma cell viability loss – plate reader, cherry-pick, two tests, cytotoxicity control, dose response (AID 651898)
Condition context: at 12 µM, test 1 unless noted
The other results are listed elsewhere or left out. The source made the active and inactive calls. No rule for the calls is given here.
Recorded max activity by entry

chem_smiles=Cc1c2cnn(CC(=O)NCc3ccccn3)c(=O)c2c(C)n1Cc1ccc(Cl)cc1 result_type="max activity" value_measured="24.2% [at 26 µM, test 1] (inactive)"

IN: Looking for the measured max activity of C=C(C)CSc1nc(N)c2c3c(sc2n1)CCC3 , can you help?
OUT: -7.76% [at 1.6 µM, test 1] (inactive)

IN: Looking for the measured max activity of Cc1ccc(Cc2c(C)nc3nc(SCC(=O)NCCN4CCOCC4)nn3c2C)cc1 , can you help?
OUT: -6.95% [at 0.38 µM, test 1] (inactive)

IN: Looking for the measured max activity of CC1(C)CC(=O)C=C(c2ccc3ncccc3c2)C1 , can you help?
OUT: -17% (inactive)

###

Assay overview: HepG2 hepatoma cell viability loss – plate reader, cherry-pick, two tests, cytotoxicity control, dose response (AID 651898)
Condition context: at 12 µM, test 1 unless noted
This is one part of the list. Activity calls are given as the source filed them. The rule behind the calls is not given here.
Result type: max activity

# example entries with known answers
compound=O=C(CSc1n[nH]c(-c2cccnc2)n1)Nc1ccnc2ccccc12 result_type="max activity" value_measured="8.04% (inactive)"
compound=CC(=O)O[C@]1(C(C)=O)CC[C@H]2[C@@H]3C=C(C)C4=CC(=O)CC[C@]4(C)[C@H]3CC[C@@]21C result_type="max activity" value_measured="5.11% [at 1.6 µM, test 1] (inactive)"
compound=CCCOc1ccc2c3c(c(=O)oc2c1OCCC)CCC3 result_type="max activity" value_measured="27.7% [at 26 µM, test 1] (inactive)"

IN: Looking for the measured max activity of Cc1c(OC(C)C(=O)NCC2CCC(C(=O)O)CC2)ccc2c1oc(=O)c1ccccc12 (centres undefined) , can you help?
OUT: 38.2% (inactive)

IN: Looking for the measured max activity of CC(=O)CSc1nnc(CSc2ncccn2)n1C1CCCCC1 , can you help?
OUT: 18.7% [at 1.6 µM, test 1] (inactive)

IN: Looking for the measured max activity of Cc1nc(=O)c(-c2ccccc2)c(C)n1-c1ccc(Br)cc1 , can you help?
OUT: 19% (inactive)

IN: Looking for the measured max activity of Cn1c(=O)c2c(nc(OCc3cccnc3)n2Cc2ccccc2)n(C)c1=O , can you help?
OUT: -11.3% [at 26 µM, test 1] (inactive)
